# targetOrSystem: TTK (human) (UniProt P33981)
# Sequence (P33981 whole entry, looked up): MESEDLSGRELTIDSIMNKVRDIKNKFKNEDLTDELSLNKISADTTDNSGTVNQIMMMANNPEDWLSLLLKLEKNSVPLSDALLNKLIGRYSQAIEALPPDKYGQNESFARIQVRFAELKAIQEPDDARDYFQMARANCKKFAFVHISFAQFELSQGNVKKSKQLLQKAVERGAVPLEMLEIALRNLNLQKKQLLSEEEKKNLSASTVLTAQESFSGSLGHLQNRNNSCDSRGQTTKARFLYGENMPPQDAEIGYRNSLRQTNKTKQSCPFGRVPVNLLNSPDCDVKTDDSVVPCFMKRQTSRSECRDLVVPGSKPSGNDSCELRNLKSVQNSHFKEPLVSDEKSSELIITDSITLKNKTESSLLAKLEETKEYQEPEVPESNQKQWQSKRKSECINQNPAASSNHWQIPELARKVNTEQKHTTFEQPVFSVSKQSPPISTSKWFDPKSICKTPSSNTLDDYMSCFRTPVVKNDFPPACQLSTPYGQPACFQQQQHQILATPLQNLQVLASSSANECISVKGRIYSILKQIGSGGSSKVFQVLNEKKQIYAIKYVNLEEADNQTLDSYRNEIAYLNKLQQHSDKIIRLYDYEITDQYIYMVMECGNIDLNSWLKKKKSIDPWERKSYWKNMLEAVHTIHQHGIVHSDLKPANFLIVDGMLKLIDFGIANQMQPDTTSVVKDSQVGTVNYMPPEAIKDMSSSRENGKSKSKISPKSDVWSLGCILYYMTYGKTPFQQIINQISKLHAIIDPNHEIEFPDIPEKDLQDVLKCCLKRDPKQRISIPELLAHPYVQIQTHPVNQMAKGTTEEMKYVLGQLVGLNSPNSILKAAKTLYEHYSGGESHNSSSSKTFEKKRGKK
# methodNotes: KINOMEscan competition binding
# conditionInfo: compound 10.0 µM
measuredMetric: kinase still bound, per cent of control

Enquiry: Would you kindly share the measured kinase still bound, per cent of control for COc1cc(N2CCC(O)CC2)ccc1Nc1ncc2c(n1)N(c1ccccc1)CCC(=O)N2C ?
Return: 5%

Enquiry: kinase still bound, per cent of control for COc1cc(N2CCN(C)CC2)ccc1Nc1ncc2c(n1)N(C(C)C)c1ccccc1C(=O)N2C ?
Return: 8%

Enquiry: May I ask what kinase still bound, per cent of control has been recorded for CC(C)Oc1cc(N2CCC(N(C)C)CC2)ccc1Nc1ncc2c(n1)N1CCC[C@H]1CC(=O)N2C ?
Return: 12%

====

As shown below, each of these molecules has a reported kinase still bound, per cent of control value.
# targetOrSystem: PIM3 (human) (UniProt Q86V86)
# methodNotes: KINOMEscan competition binding
# conditionInfo: compound 10.0 µM
Enter your answer as a number in %; do not include the unit.

molecule=O=C1NC(=O)/C(=C/c2ccc(-c3ccc(F)cc3O)o2)S1 targetorsystem="PIM3 (human) (UniProt Q86V86)" unitsymbol=% measurednumber=4.8

Enquiry: Enter reported kinase still bound, per cent of control observed with PIM3 (human) (UniProt Q86V86) for N=C1NC(=O)/C(=C/c2cccc(-c3ccc(S(N)(=O)=O)cc3)c2)S1
Return: 13

Enquiry: Form entry - test system: PIM3 (human) (UniProt Q86V86); read-out: kinase still bound, per cent of control; molecule: N=C1NC(=O)/C(=C/c2ccc(-c3ccc(F)cc3O)o2)S1
Return: 4.7

Enquiry: Please tell me: kinase still bound, per cent of control of O=C1NC(=O)/C(=C/c2cc(-c3ccc(N4CCNCC4)nc3)c[nH]c2=O)S1 , system PIM3 (human) (UniProt Q86V86)?
Return: 30

Enquiry: Lab note: need kinase still bound, per cent of control with PIM3 (human) (UniProt Q86V86) for entry Nc1cccc(-c2cc(/C=C3\SC(=O)NC3=O)c[nH]c2=O)c1 , please look it up.
Return: 5.4

Enquiry: For the record N=C1NC(=O)/C(=C/c2c[nH]c(=O)c(-c3ccc(N4CCNCC4)nc3)c2)S1 , what value of kinase still bound, per cent of control is listed for PIM3 (human) (UniProt Q86V86)?
Return: 8

Enquiry: Give PIM3 (human) (UniProt Q86V86) kinase still bound, per cent of control for CS(=O)C1=NC(=O)/C(=C/c2ccc(-c3ccc(S(N)(=O)=O)cc3)o2)S1 (stereo unspecified)
Return: 2.8

Enquiry: Tell me reported kinase still bound, per cent of control for CC(=O)Nc1ccc(-c2ccc(/C=C3\SC(=N)NC3=O)o2)c(O)c1 , tested with PIM3 (human) (UniProt Q86V86).
Return: 2.2

Enquiry: Which measured kinase still bound, per cent of control belongs to CS(=O)(=O)Nc1ccc(-c2cc(/C=C3\SC(=N)NC3=O)c[nH]c2=O)cc1 , tested on PIM3 (human) (UniProt Q86V86)?
Return: 6.1

Enquiry: What kinase still bound, per cent of control appears in the records for this molecule with PIM3 (human) (UniProt Q86V86)? O=C1NC(=O)/C(=C/c2ccc(-c3ccc4c(C(=O)Nc5cccc(C(F)(F)F)c5)cccc4c3)o2)S1
Return: 11

Enquiry: For the record N=C1NC(=O)/C(=C/c2ccc(-c3ccc(Cl)cc3)o2)S1 , what value of kinase still bound, per cent of control is listed for PIM3 (human) (UniProt Q86V86)?
Return: 3.9

====

Consider the following molecules and their measured kinase still bound, per cent of control readings.
# targetOrSystem: MYLK3 (human) (UniProt Q32MK0)
# Sequence (Q32MK0 whole entry, looked up): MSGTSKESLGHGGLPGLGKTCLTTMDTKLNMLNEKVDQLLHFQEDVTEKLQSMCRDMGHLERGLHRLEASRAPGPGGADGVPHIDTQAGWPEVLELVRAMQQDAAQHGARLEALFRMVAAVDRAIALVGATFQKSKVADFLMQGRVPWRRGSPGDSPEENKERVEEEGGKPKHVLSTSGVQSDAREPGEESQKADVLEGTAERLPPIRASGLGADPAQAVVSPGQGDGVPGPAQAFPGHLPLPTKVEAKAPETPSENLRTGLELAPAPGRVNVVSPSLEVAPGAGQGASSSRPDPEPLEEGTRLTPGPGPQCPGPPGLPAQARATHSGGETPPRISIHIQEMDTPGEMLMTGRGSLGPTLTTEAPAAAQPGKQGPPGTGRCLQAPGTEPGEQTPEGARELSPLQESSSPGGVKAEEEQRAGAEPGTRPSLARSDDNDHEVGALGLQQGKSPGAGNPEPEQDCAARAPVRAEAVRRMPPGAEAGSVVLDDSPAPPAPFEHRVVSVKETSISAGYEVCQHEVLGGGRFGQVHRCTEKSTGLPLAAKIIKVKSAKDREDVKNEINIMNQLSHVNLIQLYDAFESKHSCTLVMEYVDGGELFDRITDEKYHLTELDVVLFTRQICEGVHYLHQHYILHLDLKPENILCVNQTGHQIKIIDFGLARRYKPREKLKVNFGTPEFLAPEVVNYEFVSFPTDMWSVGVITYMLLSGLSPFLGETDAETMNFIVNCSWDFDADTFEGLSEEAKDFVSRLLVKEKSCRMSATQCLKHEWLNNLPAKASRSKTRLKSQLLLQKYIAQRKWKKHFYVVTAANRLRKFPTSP
# methodNotes: KINOMEscan competition binding
# conditionInfo: compound 10.0 µM

# example entries with known answers
chemicalsmiles=N=C1NC(=O)/C(=C/c2ccc(-c3ccc(F)cc3O)o2)S1 measuredmetric="kinase still bound, per cent of control" result=16%
chemicalsmiles=CN1C(=O)c2ccccc2N(C)c2nc(NS(=O)(=O)c3ccc(N)cc3)ncc21 measuredmetric="kinase still bound, per cent of control" result=100%
chemicalsmiles=COc1cc(N2CCN(C)CC2)ccc1Nc1ncc2c(n1)Nc1ccccc1NC2=O measuredmetric="kinase still bound, per cent of control" result=100%
chemicalsmiles=O=C1NC(=O)/C(=C/c2ccc(-c3ccc(F)cc3O)o2)S1 measuredmetric="kinase still bound, per cent of control" result=29%

Enquiry: Request body: readout kinase still bound, per cent of control, system MYLK3 (human) (UniProt Q32MK0), query N=C1NC(=O)/C(=C/c2ccc(-c3ccc(C(N)=O)cc3O)o2)S1 . Return the value.
Return: 22%

====

kinase still bound, per cent of control overview
# targetOrSystem: TEK (human) (UniProt Q02763)
# Sequence (Q02763 whole entry, looked up): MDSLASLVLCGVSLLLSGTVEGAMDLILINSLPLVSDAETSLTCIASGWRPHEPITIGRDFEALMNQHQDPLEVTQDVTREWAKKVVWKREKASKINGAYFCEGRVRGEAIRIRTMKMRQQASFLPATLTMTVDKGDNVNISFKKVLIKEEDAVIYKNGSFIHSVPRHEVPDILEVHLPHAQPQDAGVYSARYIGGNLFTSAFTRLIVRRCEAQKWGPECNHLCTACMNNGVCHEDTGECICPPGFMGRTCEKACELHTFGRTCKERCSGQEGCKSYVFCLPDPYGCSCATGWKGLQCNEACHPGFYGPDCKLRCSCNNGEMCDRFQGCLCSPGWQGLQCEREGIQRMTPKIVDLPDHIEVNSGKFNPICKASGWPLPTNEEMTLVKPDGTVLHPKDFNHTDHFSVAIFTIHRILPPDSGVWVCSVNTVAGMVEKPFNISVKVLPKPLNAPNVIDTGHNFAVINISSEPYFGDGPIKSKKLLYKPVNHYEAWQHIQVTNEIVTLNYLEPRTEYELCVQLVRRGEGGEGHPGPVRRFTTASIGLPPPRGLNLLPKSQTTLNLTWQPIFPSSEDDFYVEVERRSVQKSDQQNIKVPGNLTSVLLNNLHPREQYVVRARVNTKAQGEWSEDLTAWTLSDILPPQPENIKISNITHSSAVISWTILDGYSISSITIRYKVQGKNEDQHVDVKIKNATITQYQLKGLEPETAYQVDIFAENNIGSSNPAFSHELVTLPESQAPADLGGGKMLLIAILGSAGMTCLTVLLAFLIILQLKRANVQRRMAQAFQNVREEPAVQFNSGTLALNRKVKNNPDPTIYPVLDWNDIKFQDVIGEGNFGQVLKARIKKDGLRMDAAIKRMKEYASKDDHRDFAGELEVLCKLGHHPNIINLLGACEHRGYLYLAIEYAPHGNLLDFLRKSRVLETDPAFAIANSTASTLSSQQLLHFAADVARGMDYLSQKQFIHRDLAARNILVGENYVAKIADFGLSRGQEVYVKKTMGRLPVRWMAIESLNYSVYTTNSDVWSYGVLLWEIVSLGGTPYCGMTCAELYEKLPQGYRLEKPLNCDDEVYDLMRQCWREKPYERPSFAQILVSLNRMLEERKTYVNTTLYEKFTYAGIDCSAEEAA
# methodNotes: KINOMEscan competition binding
# conditionInfo: compound 10.0 µM
Report as: number unit

Illustrative cases are given below, each with its answer.
chemicalsmiles=CN1CCN(c2ccc(C(=O)Nc3ncc4c(n3)N(C)c3ccccc3C(=O)N4C)cc2)CC1 measuredmetric="kinase still bound, per cent of control" result=100%
chemicalsmiles=COc1cc(N2CCC(O)CC2)ccc1Nc1ncc2c(n1)N1CCc3cccc(c31)C(=O)N2C measuredmetric="kinase still bound, per cent of control" result=98%

Proceeding to the next compound to report its kinase still bound, per cent of control.
Enquiry: Entry under review: COc1cc(N2CCN(C)CC2)ccc1Nc1ncc2c(n1)N(C)c1sccc1C(=O)N2C . Reported kinase still bound, per cent of control?
Return: 88%

====

# targetOrSystem: ADCK4 (human) (UniProt Q96D53)
# Sequence (Q96D53 whole entry, looked up): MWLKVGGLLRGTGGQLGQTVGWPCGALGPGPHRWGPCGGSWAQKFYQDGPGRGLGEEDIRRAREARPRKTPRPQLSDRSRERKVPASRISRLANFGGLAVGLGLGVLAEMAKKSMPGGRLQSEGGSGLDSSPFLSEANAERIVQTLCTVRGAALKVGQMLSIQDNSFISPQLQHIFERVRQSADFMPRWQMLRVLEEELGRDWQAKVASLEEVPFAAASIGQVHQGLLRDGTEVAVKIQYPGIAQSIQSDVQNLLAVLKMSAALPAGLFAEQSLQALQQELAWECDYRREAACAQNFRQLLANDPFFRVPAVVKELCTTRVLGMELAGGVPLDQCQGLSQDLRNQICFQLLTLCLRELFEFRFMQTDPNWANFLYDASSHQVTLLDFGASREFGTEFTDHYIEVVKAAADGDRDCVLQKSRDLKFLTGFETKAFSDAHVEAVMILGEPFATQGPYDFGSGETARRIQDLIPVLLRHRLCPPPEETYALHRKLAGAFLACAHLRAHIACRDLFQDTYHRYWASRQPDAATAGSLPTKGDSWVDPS
# methodNotes: KINOMEscan competition binding
# conditionInfo: compound 10.0 µM
measuredMetric: kinase still bound, per cent of control (%)
# number only, unit % dropped from output

Enquiry: Give its kinase still bound, per cent of control value. Item: O=C1NC(=O)/C(=C/c2c[nH]c(=O)c(-c3ccc(N4CCNCC4)nc3)c2)S1
Return: 80

Enquiry: Sample COc1cc(N2CCN(C)CC2)ccc1Nc1ncc2c(n1)N(C)c1sccc1C(=O)N2C — what was its kinase still bound, per cent of control?
Return: 78

Enquiry: Fill in the blank: the reported kinase still bound, per cent of control of CN1C(=O)c2ccccc2N(C)c2nc(Nc3ccc(N4CCC(O)CC4)cc3)ncc21 is ____.
Return: 78

Enquiry: Form field: reported kinase still bound, per cent of control of COc1cc(N2CCN(C)CC2)ccc1Nc1ncc2c(n1)N(C)c1ccccc1N(C)C2=O
Return: 82

====

# targetOrSystem: STK17A (human) (UniProt Q9UEE5)
# Sequence (Q9UEE5 whole entry, looked up): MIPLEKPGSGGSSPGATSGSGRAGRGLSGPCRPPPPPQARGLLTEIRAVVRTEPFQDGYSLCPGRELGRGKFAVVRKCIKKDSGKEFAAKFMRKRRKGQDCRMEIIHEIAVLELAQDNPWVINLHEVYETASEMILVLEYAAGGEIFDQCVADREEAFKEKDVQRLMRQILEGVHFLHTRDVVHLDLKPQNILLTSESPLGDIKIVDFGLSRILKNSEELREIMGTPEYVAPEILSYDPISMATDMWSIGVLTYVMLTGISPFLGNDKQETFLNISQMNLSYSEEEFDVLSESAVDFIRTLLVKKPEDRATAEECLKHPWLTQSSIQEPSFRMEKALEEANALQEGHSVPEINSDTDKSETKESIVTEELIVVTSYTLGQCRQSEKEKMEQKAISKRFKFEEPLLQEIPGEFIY
# methodNotes: KINOMEscan competition binding
# conditionInfo: compound 10.0 µM
This section presents compounds with their documented kinase still bound, per cent of control values.
# value in %; strip the unit string

Below, 5 compounds whose answers are already recorded.
compound=N=C1NC(=O)/C(=C/c2ccc(-c3ccc(F)cc3O)o2)S1 targetorsystem="STK17A (human) (UniProt Q9UEE5)" measuredmetric="kinase still bound, per cent of control" measurednumber=0.3
compound=O=C1NC(=O)/C(=C/c2ccc(-c3ccc(F)cc3O)o2)S1 targetorsystem="STK17A (human) (UniProt Q9UEE5)" measuredmetric="kinase still bound, per cent of control" measurednumber=1.5
compound="COc1cc(C(=O)NC2CCC(O)CC2)ccc1Nc1ncc2c(n1)N(C1CCCC1)[C@@H]1CCC[C@@H]1C(=O)N2C (stereo partly specified)" targetorsystem="STK17A (human) (UniProt Q9UEE5)" measuredmetric="kinase still bound, per cent of control" measurednumber=0
compound=COc1cc(N2CCN(C)CC2)ccc1Nc1ncc2c(n1)N(C)c1sccc1C(=O)N2C targetorsystem="STK17A (human) (UniProt Q9UEE5)" measuredmetric="kinase still bound, per cent of control" measurednumber=96
compound=N=C1NC(=O)/C(=C/c2ccc(-c3cnc4ccccc4c3)o2)S1 targetorsystem="STK17A (human) (UniProt Q9UEE5)" measuredmetric="kinase still bound, per cent of control" measurednumber=0.55

Could you now look at the following compound, please?
Enquiry: What does the record list as kinase still bound, per cent of control for CSC1=NC(=O)/C(=C/c2c[nH]c(=O)c(-c3ccc(NS(C)(=O)=O)cc3)c2)S1 ?
Return: 5

====

# targetOrSystem: HIPK1 (human) (UniProt Q86Z02)
# Sequence (Q86Z02 whole entry, looked up): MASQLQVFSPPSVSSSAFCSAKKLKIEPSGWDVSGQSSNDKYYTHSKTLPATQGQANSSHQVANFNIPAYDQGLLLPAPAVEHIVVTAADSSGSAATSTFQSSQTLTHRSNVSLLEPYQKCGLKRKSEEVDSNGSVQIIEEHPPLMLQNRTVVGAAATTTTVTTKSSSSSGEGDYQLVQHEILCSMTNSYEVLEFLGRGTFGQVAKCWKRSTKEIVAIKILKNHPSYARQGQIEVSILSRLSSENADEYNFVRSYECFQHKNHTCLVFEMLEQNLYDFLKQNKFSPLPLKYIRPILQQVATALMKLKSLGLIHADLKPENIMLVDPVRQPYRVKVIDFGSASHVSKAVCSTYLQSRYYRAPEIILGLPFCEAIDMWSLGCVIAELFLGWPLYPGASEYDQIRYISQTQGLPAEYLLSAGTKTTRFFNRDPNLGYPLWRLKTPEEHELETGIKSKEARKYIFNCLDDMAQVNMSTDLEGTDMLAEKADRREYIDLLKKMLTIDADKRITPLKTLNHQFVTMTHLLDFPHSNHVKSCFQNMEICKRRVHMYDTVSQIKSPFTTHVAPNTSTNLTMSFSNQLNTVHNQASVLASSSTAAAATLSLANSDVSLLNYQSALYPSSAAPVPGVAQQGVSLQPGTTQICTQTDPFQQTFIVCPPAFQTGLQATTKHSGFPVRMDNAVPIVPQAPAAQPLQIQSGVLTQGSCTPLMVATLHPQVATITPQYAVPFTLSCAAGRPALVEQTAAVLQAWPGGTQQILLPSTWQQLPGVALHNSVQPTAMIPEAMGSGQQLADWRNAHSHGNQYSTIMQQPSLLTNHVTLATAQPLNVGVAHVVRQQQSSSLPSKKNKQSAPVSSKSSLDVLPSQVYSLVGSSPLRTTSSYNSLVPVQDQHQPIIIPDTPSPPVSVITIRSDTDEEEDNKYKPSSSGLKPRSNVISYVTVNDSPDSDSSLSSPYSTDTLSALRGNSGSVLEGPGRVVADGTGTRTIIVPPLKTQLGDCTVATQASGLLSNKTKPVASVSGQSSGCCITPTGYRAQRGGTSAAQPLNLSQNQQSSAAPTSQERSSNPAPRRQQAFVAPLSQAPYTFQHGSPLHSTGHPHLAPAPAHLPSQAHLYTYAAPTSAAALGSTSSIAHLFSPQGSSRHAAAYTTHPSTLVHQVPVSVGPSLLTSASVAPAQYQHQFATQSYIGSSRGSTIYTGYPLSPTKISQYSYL
# methodNotes: KINOMEscan competition binding
# conditionInfo: compound 10.0 µM
measuredMetric: kinase still bound, per cent of control (%)
Answer with a number only, understood to be in %.

Before answering, review these 3 worked examples.
chemicalsmiles=O=C1NC(=O)/C(=C/c2ccc(-c3ccc(F)cc3O)o2)S1 measuredmetric="kinase still bound, per cent of control" measurednumber=5
chemicalsmiles=N=C1NC(=O)/C(=C/c2ccc(-c3ccc(C(=O)Nc4ccc(N5CCNCC5)cc4)cc3O)o2)S1 measuredmetric="kinase still bound, per cent of control" measurednumber=0.65
chemicalsmiles=O=C1NC(=O)/C(=C/c2ccc(-c3ccc(C(=O)Nc4ccc(N5CCNCC5)cc4)cc3)o2)S1 measuredmetric="kinase still bound, per cent of control" measurednumber=1.1

Enquiry: Which kinase still bound, per cent of control is listed for Nc1cccc(-c2cc(/C=C3\SC(=O)NC3=O)c[nH]c2=O)c1 ?
Return: 0.2

Enquiry: Give its kinase still bound, per cent of control value. Item: CS(=O)(=O)Nc1ccc(-c2cncc(/C=C3\SC(=N)NC3=O)c2)cc1
Return: 19

Enquiry: Bench note: what kinase still bound, per cent of control did CN1C(=O)c2ccccc2N(C)c2nc(Nc3ccc(N4CCC(O)CC4)cc3)ncc21 show?
Return: 95

Enquiry: # input compound: N=C1NC(=O)/C(=C/c2ccc(-c3ccc(F)cc3)o2)S1 ; wanted: its kinase still bound, per cent of control
Return: 0.2
